System: Plasmodium falciparum
Assay: Calibr Malaria Delayed Death Assay SOP
Type: functional, organism-based
Design: scale not given: in the data most compounds retested in dose-response had high values
Conditions: concentration 4.99e-06 (unit not given; other assays of the set use mol/L)
The campaign covered roughly 38,000 compounds. About 1,200 (3.2%) showed an effect of 50% or more. The median lay at about -58%. Shown is part of a subset that was picked to be rich in strong results.
Listing of recorded Percent Effect by entry.
Number only, in %; omit the unit.

Some compounds with recorded Percent Effect:
O=c1ccc(-c2cccs2)nn1CN1CCc2ccccc2C1 | -135
CC1c2cccn2CCN1C(=O)CCc1nc(-c2ccccc2)no1 (stereo unspecified) | -13.83
c1cc(-c2cn[nH]c2)ccc1CN1CCCCC1 | -42.56
COC(=O)c1ccc(N2CCN(CC(=O)NC(N)=O)C(C)C2)cc1 (stereo unspecified) | -25.15
CSc1ncnc(NCc2ccccc2F)c1C#N | -23.93

Now turn to the next compound.
Problem: Param item = c1cc(-c2ccc3c(c2)C2(CCNCC2)CC3)ccn1 ; retrieve measured Percent Effect.
Result: -27.62

====

The entries below come with measured Percent Effect values attached.
Tested on: Plasmodium falciparum
Experiment: Calibr Malaria Delayed Death Assay SOP
Assay type: functional, organism-based
Design: scale not given: in the data most compounds retested in dose-response had high values
Settings: concentration 4.99e-06 (unit not given; other assays of the set use mol/L)
Screen size: about 38,000 compounds; about 1,200 (3.2%) showed an effect of 50% or more. The median lay at about -58%. Many of the other results were omitted from the sample, so strong results are more common in it than they were.
Report as a plain number; the unit % is understood.

As a guide, the following entries are already answered.
Cc1n[nH]cc1CNC1(Cc2ccc(Br)cc2)CCCCC1 | 36.65
COCC1CN(Cc2ccsc2)Cc2cnn(C)c21 (configuration not stated) | -44.18
Cc1cc(CNC(=O)NCc2cccs2)no1 | -38.54

Problem: Provide value of Percent Effect for this record tested with Plasmodium falciparum: COc1cccc(Cn2ncnc2CNC(C)=O)c1
Result: -17.74

Problem: Recall the recorded Percent Effect for Cc1oc(-c2cccc(F)c2F)nc1CN(C)CCO with Plasmodium falciparum and state it.
Result: -89.89

Problem: Record lookup: for Plasmodium falciparum, what Percent Effect belongs to Cc1c[nH]c(C(=O)N2CCCC2c2ccc(C(=O)N3CCSCC3)s2)n1 (configuration not stated) ?
Result: -168.9

Problem: For the record CCNC(=O)c1ccnc(CC2COc3c(cccc3OC)C2)c1 (configuration not stated) , what value of Percent Effect is listed for Plasmodium falciparum?
Result: -85.49

Problem: Provide the documented Percent Effect with Plasmodium falciparum as the system for CCCC1(CNCc2ncc[nH]2)CCC1
Result: 24.35

Problem: Kindly state the measured Percent Effect obtained for O=c1[nH]nc2c(S(=O)(=O)N3CCOCC3)cccn12 with Plasmodium falciparum.
Result: -183.8

Problem: For Plasmodium falciparum, provide Percent Effect of COCC1CC2(CCN(Cc3nccs3)CC2)CN1Cc1ccccn1.O=C(O)C(F)(F)F.O=C(O)C(F)(F)F.O=C(O)C(F)(F)F (configuration not stated) please.
Result: -3.583

Problem: Requested read-out Percent Effect, target or system Plasmodium falciparum, entry COCC1CC2(CCN(Cc3ccoc3)CC2)CN1Cc1ccccn1 (configuration not stated)
Result: 55.13

Problem: GET /values?readout=Percent Effect&system=Plasmodium falciparum&item= Cc1csc2ncnc(N3CCCC(Cn4cc(C(C)(C)O)nn4)C3)c12 (configuration not stated)
Result: -82.82

====

Tested on: Plasmodium falciparum
Assay: Calibr Malaria Delayed Death Assay SOP
Format: functional, organism-based
Design: scale not given: in the data most compounds retested in dose-response had high values
Conditions: concentration 4.99e-06 (unit not given; other assays of the set use mol/L)
Out of some 38,000 compounds screened, about 1,200 (3.2%) showed an effect of 50% or more. The median lay at about -58%. This is one part of a sample in which strong results are shown more often than they occur.
One threshold, -50%, splits the recorded Percent Effect values: lower ones are Satisfied, equal or higher ones are Not satisfied.

Problem: Lab log: compare recorded Percent Effect with -50%; is it strictly lower for COCC(=O)N1CCC2(COCc3cnc(NCc4ccco4)nc32)C1 (stereo not drawn) ?
Result: Satisfied

Problem: Please state whether Percent Effect is below -50% for Cn1nc(CN2CCCCC2)c2c1CN(C(=O)c1ccccc1)C2
Result: Satisfied

====

Test system: Plasmodium falciparum
Assay: Calibr Malaria Delayed Death Assay SOP
Format: functional, organism-based
Parameters: scale not given: in the data most compounds retested in dose-response had high values
Conditions: concentration 4.99e-06 (unit not given; other assays of the set use mol/L)
The whole screen tested about 38,000 compounds, of which about 1,200 (3.2%) showed an effect of 50% or more. The median lay at about -58%. The full list was thinned out, with strong results kept by preference.
Endpoint label: Percent Effect

Solved cases below.
O=C(O)c1cn2cc(C(F)(F)F)ccc2n1 | -36.42%
O=S1(=O)N=C(CSCc2ccccc2)Nc2ccccc21 | -68.12%
CCc1ccc2nc(NCCCN(CCO)CCO)cc(C)c2c1 | 83.32%
CCC1(CC)CC(=O)N(CC(O)c2cc(F)ccc2F)C1=O (stereo unspecified) | -120%
O=C1CCSCC(C(=O)N2CCC(O)CC2)N1 (stereo unspecified) | -111.3%

Now consider a different compound.
Problem: // returns reported Percent Effect for input COc1ccccc1C(C)NC(=O)NCCC(=O)NC1CCCCC1 (stereo unspecified)
Result: -102.7%

====

Tested on: Plasmodium falciparum
Assay: Calibr Malaria Delayed Death Assay SOP
Assay type: functional, organism-based
Set-up: scale not given: in the data most compounds retested in dose-response had high values
Conditions: concentration 4.99e-06 (unit not given; other assays of the set use mol/L)
Out of some 38,000 compounds screened, about 1,200 (3.2%) showed an effect of 50% or more. The median lay at about -58%. What follows is part of a selection rich in strong results, with near analogues and random picks from the rest.
Readings of Percent Effect for the listed compounds
Supply the numeric figure in %, leaving out any unit text.

// known answers, use as guide
c1ccc(-c2cnc(CN3CCn4c(nnc4C4CC4)C3)o2)cc1 | -11.2
O=C(c1cc(Cl)c2c(c1)OCO2)N1CCN(c2cnccn2)CC1 | -89.48
FC(F)(F)c1ccnc(N2C[C@H]3CCN(c4cccnc4)C[C@H]3C2)n1.O=C(O)C(F)(F)F | -4.152
O=C(CN1CCCS1(=O)=O)Nc1ccc(OC2CCCC2)cc1 | -131
Cl.Cn1cccc1C(=O)N1CCc2c(CNS(C)(=O)=O)cncc2C1 | -73.02
CCc1nc(CN2CCCC2C(=O)NC2CC2)cs1 (stereo unspecified) | -16.64

Problem: If you can, please state the reported Percent Effect value of Cc1cnn(CCNCc2ccc(F)cc2Cl)c1 .
Result: -82.03

Problem: Query: Percent Effect; subject: OC(c1ccccn1)C1CCN(Cc2cc3n(n2)CCCNC3)CC1 (stereo unspecified)
Result: -111.2

Problem: If you can, please state the reported Percent Effect value of CCNc1ccnc(CN2CCCC2C(=O)Nc2nccs2)c1 (stereo unspecified) .
Result: 94.9

Problem: Please report the recorded Percent Effect for O=C1NCc2ccc(NC(=O)C3CCCN3c3nccs3)cc21 (stereo unspecified) .
Result: -60.91

Problem: What does the record list as Percent Effect for CCOc1cccc(CNc2ccccc2Cl)c1O ?
Result: -149

====

Test system: Plasmodium falciparum
Assay: Calibr Malaria Delayed Death Assay SOP
Assay type: functional, organism-based
Parameters: scale not given: in the data most compounds retested in dose-response had high values
Conditions: concentration 4.99e-06 (unit not given; other assays of the set use mol/L)
The whole screen tested about 38,000 compounds, of which about 1,200 (3.2%) showed an effect of 50% or more. The median lay at about -58%. The list comes from a sample in which strong results are over-represented; it also holds close analogues and randomly drawn compounds.
# Percent Effect values compiled below

COc1ccc(Cn2nnnc2SCC2CCCN(C)C2)cc1 (stereo unspecified) | 58.9%
COc1ccc(OC)c(-n2nnnc2SCC2CCCN(C)C2)c1 (stereo unspecified) | 41.34%
CS(=O)(=O)NC[C@H]1Cn2c(-c3ccccc3)cnc2CO1 | -22.21%

Problem: // query Percent Effect value for entry COc1ccc(CN2CC[C@H](c3nnc(-c4ccco4)o3)C2)cc1
Result: -19.38%

Problem: Name the recorded Percent Effect for Cc1cc2nc(C(C)C)cc(N3CCN(S(N)(=O)=O)CC3)n2n1 .
Result: -79.73%

Problem: Would you mind telling me what Percent Effect value was observed for CN(C)CCNC(=O)c1nc2c(s1)CCCN2C(=O)C1CC1.O=C(O)C(F)(F)F ?
Result: 21.8%

====

Consider the following molecules and their measured Percent Effect readings.
Test system: Plasmodium falciparum
Test: Calibr Malaria Delayed Death Assay SOP
Assay type: functional, organism-based
Design: scale not given: in the data most compounds retested in dose-response had high values
Details: concentration 4.99e-06 (unit not given; other assays of the set use mol/L)
The campaign covered roughly 38,000 compounds. About 1,200 (3.2%) showed an effect of 50% or more. The median lay at about -58%. The list comes from a sample in which strong results are over-represented; it also holds close analogues and randomly drawn compounds.
All answers are understood in %, so give the number only.

Before answering, review these 5 worked examples.
O=S1(=O)c2ccccc2OCC2(CCN(CCO)CC2)CN1CC1CC1 | 76.86
CCc1cc(N2CCC(Nc3ccc(Cl)cn3)CC2)ncn1 | -58.54
O=C(O)C(F)(F)F.O=C(c1ccccn1)N1C[C@H]2CCC[C@@]2(COCC2CCOCC2)C1 | -43.42
Cc1cccc(CCC(=O)Nc2ccnn2C2CCS(=O)(=O)C2)c1 (stereo unspecified) | -75.57
Cc1nc2oc(C(=O)N3CCOCC3)c(N)c2c2c1CCCC2 | -269.1

Problem: Data request, read-out Percent Effect, for CC(C)C(=O)NCCC(=O)N1CCN(c2ccccn2)CC1
Result: -182.3

All figures here come from ChEMBL document CHEMBL3988442.
